Please provide measured IC50 for the entries that follow.
# System name: Human Cav 2.2 channels (Homo sapiens)
# Assay summary: Fluorescent assay for CaV2.2 channels using potassium depolarization (VIPR/FLIPR)
# Assay type: cell-based
# Settings: FLIPR data; closed state; read-out: CAv2.2 IC50 Closed
I'd appreciate it if you included the unit after the number.

Solved cases below.
[[record]]
molecule = "CC(C)S(=O)(=O)c1cc(C(F)(F)F)cnc1C(=O)N[C@H]1C[C@H](CC(C)(C)S(=O)(=O)c2cccc(C(F)(F)F)c2)C1"
parameter = "IC50"
result_value = "6.04 µM"

[[record]]
molecule = "CC(C)(C[C@H]1C[C@H](NC(=O)c2ncc(C(F)(F)F)cc2S(C)(=O)=O)C1)S(=O)(=O)c1cccc(C(F)(F)F)c1"
parameter = "IC50"
result_value = "8.63 µM"


Look at each molecule and report its IC50.
1. CC(C)S(=O)(=O)c1cc(C(F)(F)F)cnc1C(=O)NCC1CC(C(C)(C)S(=O)(=O)c2cccc(C(F)(F)F)c2)C1 (centres unmarked)
2. CC(C)([C@H]1C[C@H](NS(=O)(=O)c2ccc(F)c(C(F)(F)F)c2)C1)S(=O)(=O)c1cccc(C(F)(F)F)c1

1. 6.51 µM
2. 10 µM

For each listed entry, give its IC50.
1. CC(C)([C@H]1C[C@H](NC(=O)c2ccc(C(F)(F)F)cc2)C1)S(=O)(=O)c1cccc(C(F)(F)F)c1
2. CC(C)([C@H]1C[C@@H](NC(=O)c2ccnc(C(F)(F)F)n2)C1)S(=O)(=O)c1cc(F)cc(C(F)(F)F)c1
3. CC(C)([C@H]1C[C@@H](CNC(=O)c2ccnc(C(F)(F)F)n2)C1)S(=O)(=O)c1cccc(C(F)(F)F)c1
4. CC(C)([C@H]1C[C@@H](NC(=O)c2ncc(C(F)(F)F)cc2S(C)(=O)=O)C1)S(=O)(=O)c1cc(F)cc(C(F)(F)F)c1
5. CS(=O)(=O)c1cc(Cl)ccc1C(=O)NC[C@H]1C[C@H](S(=O)(=O)c2cccc(OC(F)(F)F)c2)C1

2.86 µM
5.86 µM
2.77 µM
10 µM
7.75 µM

// each molecule listed below needs its IC50
1. CC(C)([C@H]1C[C@H](NS(=O)(=O)c2ccc(F)c(Cl)c2)C1)S(=O)(=O)c1cccc(C(F)(F)F)c1
2. CC(C)([C@H]1C[C@H](NS(=O)(=O)c2ccc(OC(F)(F)F)cc2)C1)S(=O)(=O)c1cccc(C(F)(F)F)c1
3. CC(C)(C1CC(CNC(=O)c2ccc(Cl)c(OC(F)(F)F)c2)C1)S(=O)(=O)c1cccc(C(F)(F)F)c1 (centres unmarked)

1. 8.05 µM
2. 7.9 µM
3. 1.83 µM

Please give IC50, item by item, for the list that follows.
1. CC(C)([C@H]1C[C@H](Nc2ccnc(C(F)(F)F)n2)C1)S(=O)(=O)c1cccc(OC(F)(F)F)c1
2. CS(=O)(=O)c1cc(C(F)(F)F)cnc1C(=O)NC[C@H]1C[C@H](S(=O)(=O)c2cc(F)cc(C(F)(F)F)c2)C1
3. CC(C)([C@H]1C[C@@H](C(=O)Nc2ccc(C(F)(F)F)cn2)C1)S(=O)(=O)c1cccc(C(F)(F)F)c1
4. CC(C)(C[C@H]1C[C@H](NC(=O)[C@@H]2CCCC[C@H]2N)C1)S(=O)(=O)c1cccc(C(F)(F)F)c1
5. CC(C)([C@H]1C[C@H](NS(=O)(=O)c2ccc(C(F)(F)F)cc2)C1)S(=O)(=O)c1cc(F)cc(C(F)(F)F)c1
6. N[C@@H]1CCCC[C@@H]1C(=O)NC[C@H]1C[C@H](S(=O)(=O)c2cc(F)cc(C(F)(F)F)c2)C1 (single isomer, unassigned)
7. Cn1nc(C(F)(F)F)cc1C(=O)N1CC(CS(=O)(=O)c2cc(F)cc(C(F)(F)F)c2)C1
8. CC(C)([C@H]1C[C@@H](NS(=O)(=O)c2ccc(OC(F)(F)F)cc2)C1)S(=O)(=O)c1cccc(C(F)(F)F)c1

4.17 µM
10 µM
2.54 µM
3.64 µM
5.4 µM
10 µM
10 µM
10 µM

---

# System name: human α1H T-type channels (Homo sapiens, UniProt O95180)
# Assay summary: T-type calcium channel block, whole cell patch clamp, α1H
# Settings: HEK cells stably expressing human α1H; mainly non-inactivated protocol; values above 10,000 nM represented as 10000
Parameter: pIC50
Give bare numbers, as −log10 of the molar value.

[[record]]
molecule = "O=C(N[C@H]1CC[C@@H](S(=O)(=O)c2cc(F)cc(C(F)(F)F)c2)CC1)c1ccnn1CC(F)(F)F"
result_value = 6.14

[[record]]
molecule = "Cn1nc(C(F)(F)F)cc1C(=O)NCC1(C)CCC(S(=O)(=O)c2cccc(C(F)(F)F)c2)CC1 (stereo not drawn)"
result_value = 5.59

[[record]]
molecule = "CC(C)S(=O)(=O)c1cc(C(F)(F)F)cnc1C(=O)N[C@H]1CC[C@H](CS(=O)(=O)c2cccc(C(F)(F)F)c2)CC1"
result_value = 5.69

[[record]]
molecule = "O=S(=O)(N[C@H]1CC[C@@](F)(S(=O)(=O)c2cccc(C(F)(F)F)c2)CC1)c1ccc(C(F)(F)F)cc1Cl"
result_value = 6.52

[[record]]
molecule = "O=S(=O)(N[C@H]1CC[C@@](F)(S(=O)(=O)c2cccc(C(F)(F)F)c2)CC1)c1cccc(C(F)(F)F)c1"
result_value = 6.37


Below is a list of molecules. For each, state its recorded pIC50.
1. O=C(N[C@H]1CC[C@@H](S(=O)(=O)c2cccc(C(F)(F)F)c2)CC1)c1ccc(OCC(F)(F)F)nc1
2. CC(C)(CC(=O)Nc1ccc(Oc2ccc(F)cc2)cc1)S(=O)(=O)c1cccc(C(F)(F)F)c1
3. Cc1cc(NC(=O)CN[C@H]2CC[C@H](S(=O)(=O)c3cccc(C(F)(F)F)c3)CC2)on1
4. O=C(NC[C@H]1C[C@H](S(=O)(=O)c2cccc(C(F)(F)F)c2)C1)c1cc(C(F)(F)F)ccn1

1: 5.25; 2: 6.07; 3: 5.92; 4: 5.02

---

# System name: CAv1.2 (Homo sapiens)
# Sequence (Q13936 whole entry): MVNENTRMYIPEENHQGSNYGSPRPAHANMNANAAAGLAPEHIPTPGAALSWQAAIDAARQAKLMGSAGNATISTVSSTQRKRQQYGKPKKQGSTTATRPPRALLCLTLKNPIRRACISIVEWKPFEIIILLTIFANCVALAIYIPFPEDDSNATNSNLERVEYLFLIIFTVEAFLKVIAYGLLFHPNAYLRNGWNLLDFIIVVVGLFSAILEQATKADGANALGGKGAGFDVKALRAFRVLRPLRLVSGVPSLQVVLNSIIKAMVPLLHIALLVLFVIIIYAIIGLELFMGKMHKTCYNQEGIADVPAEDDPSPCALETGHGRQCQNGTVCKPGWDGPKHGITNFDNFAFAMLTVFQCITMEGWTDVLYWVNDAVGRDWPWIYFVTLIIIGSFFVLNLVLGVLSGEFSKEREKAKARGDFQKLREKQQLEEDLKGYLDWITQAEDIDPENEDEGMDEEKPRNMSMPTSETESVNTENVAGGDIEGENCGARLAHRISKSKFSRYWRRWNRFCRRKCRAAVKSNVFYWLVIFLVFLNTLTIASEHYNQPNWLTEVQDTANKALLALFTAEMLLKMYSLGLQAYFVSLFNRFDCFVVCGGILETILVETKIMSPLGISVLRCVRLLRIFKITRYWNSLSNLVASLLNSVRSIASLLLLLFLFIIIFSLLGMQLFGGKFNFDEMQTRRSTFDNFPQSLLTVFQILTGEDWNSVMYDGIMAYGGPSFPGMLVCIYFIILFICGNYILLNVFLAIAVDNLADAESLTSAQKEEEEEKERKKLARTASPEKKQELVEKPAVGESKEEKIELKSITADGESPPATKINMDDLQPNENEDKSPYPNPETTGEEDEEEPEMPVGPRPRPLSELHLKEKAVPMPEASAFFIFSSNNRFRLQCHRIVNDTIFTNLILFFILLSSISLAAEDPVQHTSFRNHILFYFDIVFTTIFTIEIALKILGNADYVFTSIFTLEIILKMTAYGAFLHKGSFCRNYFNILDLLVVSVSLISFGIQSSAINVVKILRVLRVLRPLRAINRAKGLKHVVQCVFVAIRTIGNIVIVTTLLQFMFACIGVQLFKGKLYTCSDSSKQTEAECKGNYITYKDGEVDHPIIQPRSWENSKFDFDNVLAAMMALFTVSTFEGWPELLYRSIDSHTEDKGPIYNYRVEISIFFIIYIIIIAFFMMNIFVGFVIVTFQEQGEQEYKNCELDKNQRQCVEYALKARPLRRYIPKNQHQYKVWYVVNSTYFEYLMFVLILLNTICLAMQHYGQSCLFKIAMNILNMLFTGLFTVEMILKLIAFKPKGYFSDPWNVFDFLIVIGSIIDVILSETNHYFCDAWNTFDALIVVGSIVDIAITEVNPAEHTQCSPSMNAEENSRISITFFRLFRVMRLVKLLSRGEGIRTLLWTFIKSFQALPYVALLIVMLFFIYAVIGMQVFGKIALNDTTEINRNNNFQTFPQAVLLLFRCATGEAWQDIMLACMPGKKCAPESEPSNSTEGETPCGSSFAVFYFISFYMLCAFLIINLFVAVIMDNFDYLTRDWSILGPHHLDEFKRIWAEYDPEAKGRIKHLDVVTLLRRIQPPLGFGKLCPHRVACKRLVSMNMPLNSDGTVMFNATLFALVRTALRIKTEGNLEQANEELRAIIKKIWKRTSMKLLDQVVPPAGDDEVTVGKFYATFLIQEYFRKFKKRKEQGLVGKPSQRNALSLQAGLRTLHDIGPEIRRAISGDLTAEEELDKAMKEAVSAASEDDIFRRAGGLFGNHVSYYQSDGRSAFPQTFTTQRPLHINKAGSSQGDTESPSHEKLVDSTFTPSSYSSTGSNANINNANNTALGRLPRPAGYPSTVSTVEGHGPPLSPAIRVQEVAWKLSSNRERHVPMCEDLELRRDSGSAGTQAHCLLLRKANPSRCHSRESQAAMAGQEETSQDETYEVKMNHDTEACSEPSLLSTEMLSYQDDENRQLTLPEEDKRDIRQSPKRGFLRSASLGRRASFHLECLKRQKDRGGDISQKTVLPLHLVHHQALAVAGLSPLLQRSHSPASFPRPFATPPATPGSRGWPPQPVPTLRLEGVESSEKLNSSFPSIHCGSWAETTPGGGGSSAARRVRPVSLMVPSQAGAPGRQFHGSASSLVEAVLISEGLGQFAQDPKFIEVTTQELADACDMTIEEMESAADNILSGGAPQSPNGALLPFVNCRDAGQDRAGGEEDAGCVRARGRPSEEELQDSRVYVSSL
# Sequence (P54289 25-1103 partner): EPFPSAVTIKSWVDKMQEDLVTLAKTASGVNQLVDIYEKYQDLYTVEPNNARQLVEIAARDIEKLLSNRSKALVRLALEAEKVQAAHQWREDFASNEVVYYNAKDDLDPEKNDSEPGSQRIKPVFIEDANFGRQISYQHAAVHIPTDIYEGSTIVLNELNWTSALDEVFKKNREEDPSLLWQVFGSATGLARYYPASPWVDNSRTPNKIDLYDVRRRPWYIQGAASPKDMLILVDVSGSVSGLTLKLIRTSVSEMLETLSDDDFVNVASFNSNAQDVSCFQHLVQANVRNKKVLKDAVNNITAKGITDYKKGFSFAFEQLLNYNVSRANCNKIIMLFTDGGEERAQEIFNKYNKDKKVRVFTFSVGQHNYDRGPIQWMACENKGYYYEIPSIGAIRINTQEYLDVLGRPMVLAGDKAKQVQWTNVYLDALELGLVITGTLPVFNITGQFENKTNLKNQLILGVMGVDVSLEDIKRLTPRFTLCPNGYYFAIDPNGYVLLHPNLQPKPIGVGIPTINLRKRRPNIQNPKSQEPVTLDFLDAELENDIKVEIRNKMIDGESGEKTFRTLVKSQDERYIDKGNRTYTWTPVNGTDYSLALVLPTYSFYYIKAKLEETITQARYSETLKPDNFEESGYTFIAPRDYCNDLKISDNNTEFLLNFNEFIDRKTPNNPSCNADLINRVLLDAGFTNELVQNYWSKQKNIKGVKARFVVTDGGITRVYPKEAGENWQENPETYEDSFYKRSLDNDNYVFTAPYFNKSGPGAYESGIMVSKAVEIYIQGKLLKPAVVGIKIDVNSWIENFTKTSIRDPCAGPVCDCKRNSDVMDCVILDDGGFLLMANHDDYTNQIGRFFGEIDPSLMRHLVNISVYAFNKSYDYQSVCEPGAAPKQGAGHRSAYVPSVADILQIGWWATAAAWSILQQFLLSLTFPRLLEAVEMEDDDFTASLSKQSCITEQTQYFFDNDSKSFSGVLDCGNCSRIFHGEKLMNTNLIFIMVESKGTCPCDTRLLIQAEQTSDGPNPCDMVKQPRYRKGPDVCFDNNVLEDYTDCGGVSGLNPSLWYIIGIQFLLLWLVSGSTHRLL
# Sequence (Q08289 whole entry partner): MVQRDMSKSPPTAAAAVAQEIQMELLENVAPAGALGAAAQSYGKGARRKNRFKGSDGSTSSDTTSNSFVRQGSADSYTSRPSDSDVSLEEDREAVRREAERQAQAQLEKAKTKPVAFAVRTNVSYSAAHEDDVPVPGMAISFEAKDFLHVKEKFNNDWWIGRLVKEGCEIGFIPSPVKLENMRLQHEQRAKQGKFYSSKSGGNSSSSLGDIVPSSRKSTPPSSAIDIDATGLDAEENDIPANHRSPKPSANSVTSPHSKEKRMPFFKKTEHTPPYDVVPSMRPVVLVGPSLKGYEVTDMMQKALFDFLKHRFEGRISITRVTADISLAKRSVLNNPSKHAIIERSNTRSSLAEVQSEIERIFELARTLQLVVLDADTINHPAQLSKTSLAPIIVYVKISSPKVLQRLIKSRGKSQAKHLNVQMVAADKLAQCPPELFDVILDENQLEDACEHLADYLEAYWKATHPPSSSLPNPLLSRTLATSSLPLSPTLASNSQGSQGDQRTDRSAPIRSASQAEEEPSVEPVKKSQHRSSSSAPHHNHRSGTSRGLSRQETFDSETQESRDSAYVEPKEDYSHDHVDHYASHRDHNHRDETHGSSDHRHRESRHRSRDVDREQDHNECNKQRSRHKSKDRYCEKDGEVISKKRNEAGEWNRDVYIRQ
# Assay summary: L-type (CAv1.2) channel blocking, FLIPR data (Table 6)
# Type: cell-based
# Settings: inactivated state, read-out: CAv1.2 IC50 Inact.
Kindly state pIC50 for each of the entries shown.
Give bare numbers, as −log10 of the molar value.

[[record]]
compound = "Cc1nc(C(F)(F)F)ccc1NC(=O)[C@H]1C[C@H](C(C)(C)S(=O)(=O)c2cccc(C(F)(F)F)c2)C1 [Compound 768]"
result_value = 5.35

[[record]]
compound = "CC(C)([C@H]1C[C@H](C(=O)NCc2ccc(C(F)(F)F)nc2)C1)S(=O)(=O)c1cccc(C(F)(F)F)c1 [Compound 767]"
result_value = 5.29

[[record]]
compound = "CC(C)([C@H]1C[C@@H](C(=O)Nc2ccc(C(F)(F)F)nc2)C1)S(=O)(=O)c1cccc(C(F)(F)F)c1 [Compound 759]"
result_value = 5.66


Shifting focus to the compound that follows.
The recorded pIC50 for entry O=C(NC[C@H]1C[C@H](S(=O)(=O)c2cccc(Cl)c2)C1)c1ccc(C(F)(F)F)cn1 [Compound 774] equals 5.19

---

Could you please report measured CAv2.2 IC50 Ratio closed/inact. for the items listed next?
# System name: UniProt:Q00975
# Assay summary: Fluorescent assay for CaV2.2 channels using potassium depolarization (VIPR/FLIPR)
# Type: cell-based
# Settings: FLIPR data; ratio closed/inact.

// below: answered compounds
[[record]]
compound = "O=C(NC[C@H]1C[C@H](S(=O)(=O)c2cccc(Cl)c2)C1)c1ccc(C(F)(F)F)cc1 [Compound 771]"
parameter = "CAv2.2 IC50 Ratio closed/inact."
result_value = 5

[[record]]
compound = "CC(C)([C@H]1C[C@@H](CNc2cc(C(F)(F)F)n[nH]2)C1)S(=O)(=O)c1cccc(C(F)(F)F)c1 [Compound 755]"
parameter = "CAv2.2 IC50 Ratio closed/inact."
result_value = 6

[[record]]
compound = "O=C(NC[C@H]1C[C@H](S(=O)(=O)c2cccc(Cl)c2)C1)c1ccc(Cl)cn1 [Compound 772]"
parameter = "CAv2.2 IC50 Ratio closed/inact."
result_value = 1.8

[[record]]
compound = "CC(C)([C@H]1C[C@H](C(=O)Nc2ccc(C(F)(F)F)cn2)C1)S(=O)(=O)c1cccc(C(F)(F)F)c1 [Compound 766]"
parameter = "CAv2.2 IC50 Ratio closed/inact."
result_value = 13

[[record]]
compound = "CC(C)([C@H]1C[C@H](CNc2ccc(Cl)c(F)c2)C1)S(=O)(=O)c1cccc(C(F)(F)F)c1 [Compound 751]"
parameter = "CAv2.2 IC50 Ratio closed/inact."
result_value = 13.1

[[record]]
compound = "CC(C)([C@H]1C[C@@H](C(=O)Nc2cc(C(F)(F)F)n[nH]2)C1)S(=O)(=O)c1cccc(C(F)(F)F)c1 [Compound 757]"
parameter = "CAv2.2 IC50 Ratio closed/inact."
result_value = 10.5


Look at each compound and report its CAv2.2 IC50 Ratio closed/inact..
1. CC(C)([C@H]1C[C@@H](CNc2ccc(Cl)c(F)c2)C1)S(=O)(=O)c1cccc(C(F)(F)F)c1 [Compound 754]
2. CC(C)([C@H]1C[C@@H](C(=O)Nc2ccc(C(F)(F)F)nc2)C1)S(=O)(=O)c1cccc(C(F)(F)F)c1 [Compound 759]
3. Cn1nc(C(F)(F)F)cc1C(=O)N1CC(CS(=O)(=O)c2cc(F)cc(C(F)(F)F)c2)C1 [Compound 748]
4. CC(C)([C@H]1C[C@H](C(=O)Nc2ccc(Cl)cn2)C1)S(=O)(=O)c1cccc(C(F)(F)F)c1 [Compound 761]
5. CC(C)([C@H]1C[C@@H](CNc2ccc(F)c(Cl)c2)C1)S(=O)(=O)c1cccc(C(F)(F)F)c1 [Compound 753]
6. CC(C)([C@H]1C[C@H](C(=O)NCc2ccc(C(F)(F)F)nc2)C1)S(=O)(=O)c1cccc(C(F)(F)F)c1 [Compound 767]
7. CC(C)([C@H]1C[C@H](C(=O)NCc2ccc(Oc3ccccc3)cc2)C1)S(=O)(=O)c1cccc(C(F)(F)F)c1 [Compound 764]
8. CC(C)(C[C@H]1C[C@@H](NC(=O)[C@H]2CCCC[C@@H]2N)C1)S(=O)(=O)c1cccc(C(F)(F)F)c1 [Compound 745]

1: 1.4; 2: 7.6; 3: 1.9; 4: 10.7; 5: 11.5; 6: 9.4; 7: 9.3; 8: 3.5

Okay, here is my list. What is CAv2.2 IC50 Ratio closed/inact. for each of these?
1. N[C@H]1CCCC[C@@H]1C(=O)NC[C@H]1C[C@H](S(=O)(=O)c2cccc(Cl)c2)C1 [Compound 779]
2. NC1(CC(=O)NC[C@H]2C[C@H](S(=O)(=O)c3cccc(Cl)c3)C2)CCCCC1 [Compound 776]
3. CC(C)(C[C@H]1C[C@H](NC(=O)[C@H]2CCCC[C@@H]2N)C1)S(=O)(=O)c1cccc(C(F)(F)F)c1 [Compound 743]
4. O=C(NC[C@H]1C[C@H](S(=O)(=O)c2cccc(Cl)c2)C1)c1ccc(C(F)(F)F)cn1 [Compound 774]

[1, 1.1, 2.3, 2.3]

Count: 5. Required value per item: CAv2.2 IC50 Ratio closed/inact..
1. CC(C)([C@H]1C[C@@H](C(=O)Nc2ccc(C(F)(F)F)cn2)C1)S(=O)(=O)c1cccc(C(F)(F)F)c1 [Compound 758]
2. CC(C)([C@H]1C[C@H](C(=O)Nc2ccc(C(F)(F)F)nc2)C1)S(=O)(=O)c1cccc(C(F)(F)F)c1 [Compound 760]
3. N[C@@H]1CCCC[C@H]1C(=O)NC[C@H]1C[C@H](S(=O)(=O)c2cccc(Cl)c2)C1 [Compound 777]
4. O=C(NC[C@H]1C[C@H](S(=O)(=O)c2cccc(Cl)c2)C1)c1ccc(OCC(F)(F)F)nc1 [Compound 775]
5. O=C(NC[C@H]1C[C@H](S(=O)(=O)c2cccc(Cl)c2)C1)c1cnc(C(F)(F)F)nc1 [Compound 773]

1: 6.5; 2: 15.1; 3: 1; 4: 1.7; 5: 1

Value of CAv2.2 IC50 Ratio closed/inact. reported for the compound Cc1nc(C(F)(F)F)ccc1NC(=O)[C@H]1C[C@H](C(C)(C)S(=O)(=O)c2cccc(C(F)(F)F)c2)C1 [Compound 768] is 10.7

Every entry's value here was drawn from patent US20120245137A1.
